Molecular target: NLRP3 inflammasome (Homo sapiens)
Construct: endogenous in cells; host or cells: THP-1 monocytic cells
Sequence (Q96P20 whole entry): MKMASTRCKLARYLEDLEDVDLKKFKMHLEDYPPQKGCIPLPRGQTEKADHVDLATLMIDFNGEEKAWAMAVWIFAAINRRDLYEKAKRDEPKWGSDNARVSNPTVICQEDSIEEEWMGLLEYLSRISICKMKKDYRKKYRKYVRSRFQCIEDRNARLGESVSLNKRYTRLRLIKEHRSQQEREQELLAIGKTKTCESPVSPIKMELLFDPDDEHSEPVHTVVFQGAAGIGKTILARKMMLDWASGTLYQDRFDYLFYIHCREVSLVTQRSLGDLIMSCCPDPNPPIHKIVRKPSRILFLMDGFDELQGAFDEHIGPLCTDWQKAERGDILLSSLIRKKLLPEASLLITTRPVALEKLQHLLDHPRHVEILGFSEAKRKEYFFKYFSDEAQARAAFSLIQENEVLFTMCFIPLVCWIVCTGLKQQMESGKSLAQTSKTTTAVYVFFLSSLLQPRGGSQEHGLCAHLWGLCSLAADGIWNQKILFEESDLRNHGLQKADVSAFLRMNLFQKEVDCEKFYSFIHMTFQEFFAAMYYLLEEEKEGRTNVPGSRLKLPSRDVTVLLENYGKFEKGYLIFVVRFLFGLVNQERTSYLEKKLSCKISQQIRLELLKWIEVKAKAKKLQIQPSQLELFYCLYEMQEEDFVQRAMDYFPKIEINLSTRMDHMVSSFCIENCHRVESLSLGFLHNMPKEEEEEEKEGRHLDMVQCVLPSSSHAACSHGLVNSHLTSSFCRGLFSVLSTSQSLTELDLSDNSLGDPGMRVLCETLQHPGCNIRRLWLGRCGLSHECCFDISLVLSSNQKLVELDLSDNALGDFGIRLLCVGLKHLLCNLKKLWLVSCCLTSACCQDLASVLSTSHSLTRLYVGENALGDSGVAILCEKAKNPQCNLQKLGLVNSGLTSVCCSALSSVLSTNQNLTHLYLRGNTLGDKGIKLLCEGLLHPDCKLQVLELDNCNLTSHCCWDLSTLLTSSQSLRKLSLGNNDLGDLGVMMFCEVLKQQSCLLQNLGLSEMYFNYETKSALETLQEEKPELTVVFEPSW
Assay: IL-1β secretion assay (NLRP3 IC50) in LPS-primed, nigericin-activated THP-1 cells, HTRF
Type: cell-based
Details: monocytic THP-1 cells; LPS 10 ng/mL 3 h priming, then compound + nigericin 10 μM 2 h; relative IC50, 10 concentrations, geometric mean
Procedure: Monocytic THP-1 cells were maintained in RPMI 1640 media (Gibco 21875)+10% FBS, (Gibco 10500)+1% penicillin/streptomycin (Gibco 15140-122). […] 16 μL supernatant was removed, and IL-1β levels were monitored using an HTRF assay (Human IL1b Kits HTRF Cisbio ref: 62HILBPEH) according to manufacturers' instructions. […] Relative IC50 (IC50 rel) were obtained from a dose response curve with 10 concentrations. Final IC50 rels are expressed as the geometric mean. […]
PARAMETER_MEASURED: IC50 (nM)

Some molecules with known IC50 results, for comparison:
MOLECULE	PARAMETER_MEASURED	DISPLAY_UNIT	REPORTED_MEASUREMENT
CN1CC[C@H]2CCN(c3ccc(-c4c(O)cccc4C(F)(F)F)nn3)[C@H]2C1 (racemic) [Example 389]	IC50	nM	2
CC(=O)N1CC[C@H]2OCCN(c3ccc(-c4c(C)cccc4O)nn3)[C@H]2C1	IC50	nM	638
CN1CC[C@@H]2OCCN(c3cc(C(F)F)c(-c4ccc(C(F)(F)F)cc4O)nn3)[C@@H]2C1	IC50	nM	263

[I] Cc1cc(C(F)(F)F)cc(O)c1-c1ccc(N2C[C@H](O)CC2=O)nn1
[II] Cc1cc(C)c(-c2ccc(N3CCC[C@]4(C3)C[C@@H](O)C4)nn2)c(O)c1 (single isomer, unassigned; isomer 2)
[III] CCN1CCOC2(COCCN(c3ccc(-c4c(C)cc(C)cc4O)nn3)C2)C1 (stereo not shown)
// ascending sort on recorded IC50 Returns: the labels arranged in the requested order.
II, I, III

----------
Target: NLRP3 inflammasome (Homo sapiens)
Construct: endogenous in cells
Assay: IL-1β secretion assay (NLRP3 IC50) in LPS-primed, nigericin-activated THP-1 cells, HTRF
Details: monocytic THP-1 cells; LPS 10 ng/mL 3 h priming, then compound + nigericin 10 μM 2 h; relative IC50, 10 concentrations, geometric mean
pIC50: −log10 of the molar value.
PARAMETER_MEASURED: pIC50

Consider the reported pIC50 for these compounds:
COMPOUND	pIC50
Cc1cc(C)c(-c2ccc(N3CC[C@@H](CO)C3=O)nn2)c(O)c1 (single isomer, unassigned)	6.68
Cc1cc(C(F)(F)F)cc(O)c1-c1ccc(N2CCO[C@@H]3CCN(C)C[C@@H]32)nn1 (single isomer, unassigned)	6.74
Cc1cc(C)c(-c2ccc(N3CCCc4c3ccnc4O)nn2)c(O)c1	5.67
Cc1cc(C(F)(F)F)cc(O)c1-c1ccc(N2C[C@@H](CO)O[C@H](C)C2)nn1	7.55
CC(=O)N1CC[C@@H]2CCN(c3ccc(-c4c(C)cc(C)cc4O)nn3)[C@@H]2C1 (single isomer, unassigned)	6.16
CC(=O)N1CC[C@H]2CCN(c3cc(C(F)F)c(-c4ccc(C(F)(F)F)cc4O)nn3)[C@H]2C1 (single isomer, unassigned)	6.24
Cc1cc(C)c(-c2ccc(N3CCO[C@@H](C(N)=O)C3)nn2)c(O)c1	6.16
CC(=O)N1C[C@@H]2OCCN(c3ccc(-c4c(C)cc(C)cc4O)nn3)[C@H]2C1 (racemic)	5.13
Cc1cc(C)c(-c2ccc(N3CCO[C@H](CF)C3)nn2)c(O)c1	6.99
CN1CC[C@H]2CCN(c3cc(C(F)F)c(-c4ccc(C(F)(F)F)cc4O)nn3)[C@H]2C1 (single isomer, unassigned)	9.00

[I] Cc1cc(C)c(-c2ccc(N3C[C@H]4COC[C@H]4C3)nn2)c(O)c1
[II] Oc1cc(Cl)cc(Cl)c1-c1ccc(N2CCO[C@@H](CF)C2)nn1 (single isomer, unassigned)
Hi there, can you help? I need to know whether I or II has lower measured pIC50. Please reply using the label of the selected record.
I
(I: 6.49, II: 7.62)

[A] Cc1cc(C)c(-c2ccc(N3CC4(CO)CCCC3C4)nn2)c(O)c1 (centres unmarked)
[B] NC[C@@H]1CCN(c2ccc(-c3c(O)cc(Cl)cc3Cl)nn2)C1
[C] Cc1cc(C)c(-c2ccc(N3CCC4(CC3)CNC4)nn2)c(O)c1
Rank ascending by pIC50. List each label, following the requested order.
C, A, B

[P] Cc1cc(C)c(-c2ccc(N3CCO[C@@H]4CCN(CC(F)(F)F)C[C@@H]43)nn2)c(O)c1
[Q] Cc1cc(C(F)(F)F)cc(O)c1-c1ccc(N2CCO[C@H]3CCN(C)C[C@H]32)nn1 (single isomer, unassigned) [Example 261]
Hi team, can someone confirm which has the larger pIC50: P or Q ? Thanks. Selection: enter the item's label.
Q
(Q: 9.00, P: 5.93)

[A] CCN1CC[C@H]2CCN(c3cc(C)c(-c4ccc(C)cc4O)nn3)[C@H]2C1 (single isomer, unassigned) [Example 475]
[B] CNC(=O)C[C@H]1CN(c2ccc(-c3c(C)cc(C)cc3O)nn2)CCO1 (single isomer, unassigned)
Which of the two gives a bigger number for pIC50: A or B ? Give the label under which the chosen entry appears.
A
(A: 7.03, B: 6.66)

[P] COc1cc(C)c(-c2nnc(N3CCO[C@H](CO)C3)cc2C)c(O)c1
[Q] Cc1cc(C)c(-c2ccc(N3CCC4(CN(C)CCO4)C3)nn2)c(O)c1 (centres unmarked)
Between P and Q , which one shows the smaller pIC50 number? Lab log: write the label of the selected item as the result.
Q
(Q: 5.48, P: 6.25)

[A] COC[C@@H]1CN(c2ccc(-c3c(O)cc(Cl)cc3Cl)nn2)CCO1
[B] CC(=O)N1CC[C@H]2OCCN(c3cc(C(F)F)c(-c4ccc(C)cc4O)nn3)[C@H]2C1
[C] Cc1cc(C)c(-c2ccc(N3CCOc4cnccc43)nn2)c(O)c1
[D] Cc1cc(C)c(-c2cc(C(F)F)c(N3CC[C@@H]4CCN(C)C[C@@H]43)nn2)c(O)c1 (single isomer, unassigned)
[E] CCN1CC2OCCN(c3ccc(-c4c(C)cc(C(F)(F)F)cc4O)nn3)C2C1 (racemic)
Rank order required: pIC50, descending. Please write the labels in the order that was asked for.
B, E, A, D, C
(B: 7.51, E: 6.74, A: 6.30, D: 6.04, C: 5.84)

[1] Cc1cc(C)c(-c2ccc(N3CCC[C@]4(C3)C[C@H](O)C4)nn2)c(O)c1 (single isomer, unassigned; isomer 1)
[2] CC(=O)N1CC[C@@H]2CCN(c3ccc(-c4c(C)cc(C(F)(F)F)cc4O)nn3)[C@@H]2C1
Which of the two items, 1 and 2 , has the greater recorded pIC50? Response format: the label of the selected entry.
1
(1: 6.28, 2: 5.90)
